# credit: paper PMC3326337

molecular target: His-CRP (cAMP receptor protein) (Escherichia coli, UniProt P0ACJ8 1-210); assay: DRaCALA
Sequence (P0ACJ8 whole entry): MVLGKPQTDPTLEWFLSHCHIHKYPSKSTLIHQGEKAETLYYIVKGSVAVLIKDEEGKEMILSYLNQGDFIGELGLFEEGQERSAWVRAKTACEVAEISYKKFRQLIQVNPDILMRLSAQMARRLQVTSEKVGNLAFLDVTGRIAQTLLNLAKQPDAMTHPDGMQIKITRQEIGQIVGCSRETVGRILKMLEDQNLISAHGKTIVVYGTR

binder | Kd
ICAP oligo (vl1427/vl1428) (dsDNA) DNA 1: GCAACGCAATAAATGTGATCTAGATCACATTTTAGGCACCC DNA 2: GGGGTGCCTAAAATGTGATCTAGATCACATTTATTGCGTTG | 0.036 nM
